Source listed as patent US20210246166A1.

Target: T1, Recombinant human MASP1 enzyme (fragment corresponding to amino acids 297-699, C-terminal His Tag) (human, UniProt P48740 297-699)
T1 sequence: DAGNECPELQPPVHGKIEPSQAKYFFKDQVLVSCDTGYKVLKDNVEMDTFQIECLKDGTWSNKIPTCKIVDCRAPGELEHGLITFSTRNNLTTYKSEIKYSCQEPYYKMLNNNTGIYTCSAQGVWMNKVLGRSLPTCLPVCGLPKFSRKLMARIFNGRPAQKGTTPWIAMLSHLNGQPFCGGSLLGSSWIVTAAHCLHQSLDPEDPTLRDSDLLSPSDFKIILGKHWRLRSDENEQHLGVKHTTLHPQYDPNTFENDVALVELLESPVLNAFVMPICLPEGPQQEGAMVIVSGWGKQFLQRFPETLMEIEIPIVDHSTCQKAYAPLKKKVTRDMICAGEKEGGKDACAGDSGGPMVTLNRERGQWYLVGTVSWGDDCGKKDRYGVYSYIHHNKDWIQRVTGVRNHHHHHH
Test: cell-based or functional assay
Numbered stars: 1 amine (or outer) side, 2 acyl side, 3 side chain; on linkers, the order of the positions; unused ones are H or OH. Bridge positions count the residues as written; N and C are the ends. Square brackets hold non-standard residues; d marks the D form. Ends that are not written are not given here. Phe(2,5-diF) = O=C([C@H](Cc1cc(F)ccc1F)N[*:1])[*:2]; PEG9 = NCCOCCOCCOCCOCCOCCOCCOCCOCCOCCC(=O)O; Oic = O=C(O)[C@@H]1C[C@@H]2CCCC[C@@H]2N1; tBuAla = CC(C)(C)C[C@H](N)C(=O)O; Pen = CC(C)(S)[C@H](N)C(=O)O; Sar = CNCC(=O)O
Listed here: items and their measured human MASP1 IC50.
Supply the numeric figure in nM, leaving out any unit text.

Use the examples below as a reference point.
BINDER	PARAMETER MEASURED	UNIT OF MEASUREMENT	OBSERVED MEASUREMENT
{(2S)‑2‑(morpholin-4-yl)propanoic acid}-ICSRSLP[Oic]I[Pen]IPD-OH (disulfide 2-10) [((2S)-2-(morpholin-4-yl)propanoic acid)-IC+SRSLP-(Oic)-I-(Pen)+IPD-OH]	human MASP1 IC50	nM	70
[Sar]ICSRS[tBuAla]PPI[Pen]IP-{PEG9-OH} (disulfide 3-11) [((N-Me)G)-IC+SRS-((tBu)A)-PPI-(Pen)+IP-(PEG9(31 atoms))-OH]	human MASP1 IC50	nM	6.3

Q) Return value of human MASP1 IC50 for input [Sar]ICSRS[Phe(2,5-diF)]PPI[Pen]IP[dE]-OH (disulfide 3-11; N-terminus assumed; SMILES CC[C@H](C)[C@H](NC(=O)CNC)C(=O)N[C@H]1CSSC(C)(C)[C@@H](C(=O)N[C@H](C(=O)N2CCC[C@H]2C(=O)N[C@H](CCC(=O)O)C(=O)O)[C@@H](C)CC)NC(=O)[C@H]([C@@H](C)CC)NC(=O)[C@@H]2CCCN2C(=O)[C@@H]2CCCN2C(=O)[C@H](Cc2cc(F)ccc2F)NC(=O)[C@H](CO)NC(=O)[C@H](CCCNC(=N)N)NC(=O)[C@H](CO)NC1=O) [((N-Me)G)-IC+SRS-((2,5-Difluoro)F)-PPI-(Pen)+IPe-OH] , no commentary.
A) 21
